Listed here: items and their measured pEC50.
Target: STING (Stimulator of Interferon Genes) (Homo sapiens, UniProt Q86WV6, G230A/H232R/R293Q/R71H)
Construct: host or cells: THP-1-Lucia ISG cells (human monocytic line)
Sequence (Q86WV6 whole entry R71H/G230A/H232R/R293Q): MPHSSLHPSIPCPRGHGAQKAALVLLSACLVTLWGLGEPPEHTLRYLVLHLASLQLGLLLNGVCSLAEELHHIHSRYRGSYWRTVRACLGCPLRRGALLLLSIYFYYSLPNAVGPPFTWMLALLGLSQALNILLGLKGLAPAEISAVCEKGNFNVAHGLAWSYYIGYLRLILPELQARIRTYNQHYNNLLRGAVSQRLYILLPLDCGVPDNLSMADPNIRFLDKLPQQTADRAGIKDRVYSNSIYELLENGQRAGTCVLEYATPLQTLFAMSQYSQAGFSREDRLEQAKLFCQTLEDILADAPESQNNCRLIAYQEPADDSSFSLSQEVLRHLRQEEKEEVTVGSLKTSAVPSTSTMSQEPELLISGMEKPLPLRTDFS
Assay: ISG-LUC activation assay (ISRE-Luciferase assay in THP-1 Lucia ISG reporter cells)
Format: cell-based
Conditions: THP-1 Lucia ISG cells, 24 hours, luciferase reporter; read-out: ISG-LUC activation assay (EC50)
Remember the convention: pEC50 equals -log10 of concentration in molar.

[
  {
    "record smiles": "COC(=O)c1ccc(F)c(F)c1NC(=O)c1ccc(-n2ccnc2)nn1",
    "pEC50": 6.25
  },
  {
    "record smiles": "COc1ccc(NC(=O)c2ccc(-n3ccnc3)nn2)c(C(=O)O)c1",
    "pEC50": 5.11
  },
  {
    "record smiles": "Cc1ccc(NC(=O)c2ccc(-n3ccnc3)nn2)c(C(O)(C(F)(F)F)C(F)(F)F)c1",
    "pEC50": 5.13
  }
]

Query molecule follows.
get_value(item= `COC(=O)c1cc(OC)ccc1NC(=O)c1ccc(-n2ccnc2)nn1` , readout=pEC50) returns 6.54

FYI, the data here is from patent US11701364B2.
